# ASSAY_REMARKS: Dissociation constant, pKa of the compound
# Format: physicochemical
Measured pKa, listed per entry.

# MOLECULE_SMILES, pKa
data = [
    ("Cl.O=[N+]([O-])c1ncn(CCCN(Cc2ccc(C(F)(F)F)cc2)Cc2ccc(C(F)(F)F)cc2)n1", 8.79),
    ("Cl.O=[N+]([O-])c1ncn(CCCN(Cc2ccc3cc(Br)ccc3n2)Cc2ccc3cc(Br)ccc3n2)n1", 6.87),
    ("Cl.O=[N+]([O-])c1ncn(CCCNc2ccnc3cccnc23)n1", 6.81),
    ("Cl.O=[N+]([O-])c1ncn(CCCCNc2ccnc3cccnc23)n1", 6.81),
    ("COc1ccc2nc3cc(Cl)ccc3c(NCCCCn3cnc([N+](=O)[O-])n3)c2c1", 8.84),
    ("Cl.O=[N+]([O-])c1ncn(CCCNc2c3ccccc3nc3ccccc23)n1", 9.2),
    ("Cl.O=[N+]([O-])c1ncn(CCCN(Cc2ccc3ccc(Cl)cc3n2)Cc2ccc3ccc(Cl)cc3n2)n1", 6.87),
    ("Cl.O=[N+]([O-])c1ncn(CCCNCc2ccc3ccc(Cl)cc3n2)n1", 8.76),
]

====

# ASSAY_REMARKS: Selectivity index, ratio of IC50 for rat L6 cells to IC50 for Trypanosoma cruzi Tulahuen C4
# Format: toxicity, cell-based
# CONDITION_CONTEXT: L6 cells versus Trypanosoma cruzi Tulahuen C4, read-out: Ratio IC50
METRIC: selectivity ratio

# MOLECULE_SMILES, INEQUALITY_SIGN, REPORTED
measured = [
    ("Cc1cc(NCCCn2cnc([N+](=O)[O-])n2)nc(N)n1", ">", 8),
    ("Cl.O=[N+]([O-])c1ncn(CCCNCc2ccc3ccc(Cl)cc3n2)n1", "=", 460),
    ("Cl.O=[N+]([O-])c1ncn(CCCN(Cc2ccc(C(F)(F)F)cc2)Cc2ccc(C(F)(F)F)cc2)n1", "=", 634),
    ("Cl.O=[N+]([O-])c1ncn(CCCNc2nc(-c3ccccc3)nc3ccccc23)n1", "=", 66),
    ("Cl.O=[N+]([O-])c1ncn(CCCNCc2ccc(C(F)(F)F)cc2)n1", "=", 383),
    ("O=[N+]([O-])c1nccn1CCCNCc1ccc2cc(Br)ccc2n1", "=", 23),
    ("COc1ccc2nc3cc(Cl)ccc3c(NCCCCn3cnc([N+](=O)[O-])n3)c2c1", "=", 66),
    ("Cl.O=[N+]([O-])c1nccn1CCCNc1nc(-c2ccccc2)nc2ccccc12", "=", 45),
    ("Cl.O=[N+]([O-])c1ncn(CCCCNc2nc(-c3ccccc3)nc3ccccc23)n1", "=", 44),
    ("Cl.O=[N+]([O-])c1ncn(CCCNc2ccnc3cccnc23)n1", "=", 129),
    ("Cl.O=[N+]([O-])c1ncn(CCCNc2c3ccccc3nc3ccccc23)n1", "=", 147),
    ("Cl.O=[N+]([O-])c1ncn(CCCNc2ccnc3cc(Cl)ccc23)n1", "=", 236),
    ("Cl.O=[N+]([O-])c1ncn(CCCN(Cc2ccc3cc(Br)ccc3n2)Cc2ccc3cc(Br)ccc3n2)n1", "=", 144),
    ("O=[N+]([O-])c1nccn1CCCN(Cc1ccc(C(F)(F)F)cc1)Cc1ccc(C(F)(F)F)cc1", ">", 46),
    ("Cc1nc(NCCCn2ccnc2[N+](=O)[O-])c2ccccc2n1", "=", 15),
    ("FC(F)(F)c1cc(CNCCCCn2cncn2)cc(C(F)(F)F)c1", ">", 2),
    ("O=[N+]([O-])c1nccn1CCCN(Cc1cccc(C(F)(F)F)c1)Cc1cccc(C(F)(F)F)c1", "=", 10),
    ("O=[N+]([O-])c1nccn1CCCN(Cc1ccc2cc(Br)ccc2n1)Cc1ccc2cc(Br)ccc2n1", "=", 20),
    ("O=[N+]([O-])c1nccn1CCCCNc1ccnc2cc(Cl)ccc12", "=", 19),
    ("O=[N+]([O-])c1nccn1CCCNCc1cc(C(F)(F)F)cc(C(F)(F)F)c1", "=", 6),
    ("O=[N+]([O-])c1nccn1CCCN1CCN(Cc2ccc(C(F)(F)F)cc2)CC1", ">", 9),
    ("Cc1nc(C(F)(F)F)nc(NCCCn2ccnc2[N+](=O)[O-])c1C", ">", 55),
    ("O=[N+]([O-])c1nccn1CCCCNc1nc(-c2ccccc2)nc(Cl)c1-c1ccccc1", "=", 1),
    ("Clc1ccc2c(NCCCCn3cncn3)ccnc2c1", ">", 3),
    ("Cc1cc(NCCCCn2ccnc2[N+](=O)[O-])nc(N)n1", ">", 7),
    ("O=[N+]([O-])c1nccn1CCCCNc1nc(-c2ccccc2)nc2ccccc12", "=", 9),
    ("Cl.Cl.O=[N+]([O-])c1ncn(CCCN2CCN(Cc3ccc(C(F)(F)F)cc3)CC2)n1", ">", 562),
    ("Cl.Cl.O=[N+]([O-])c1ncn(CCCCN2CCN(Cc3ccc(C(F)(F)F)cc3)CC2)n1", "=", 287),
    ("O=[N+]([O-])c1nccn1CCCCNc1c2ccccc2nc2ccccc12", "=", 2),
    ("Cc1cc(NCCCn2ccnc2[N+](=O)[O-])nc(N)n1", ">", 41),
    ("O=[N+]([O-])c1nccn1CCCNc1ccnc2cc(Cl)ccc12", "=", 24),
    ("Cl.O=[N+]([O-])c1ncn(CCCCNc2ccnc3cc(C(F)(F)F)ccc23)n1", "=", 373),
]
